- ASSAY_NAME: NCI Yeast Anticancer Drug Screen. Data for the bub3 strain (AID 167)
- PARTICULARS: S. cerevisiae bub3 mutant strain; at 50.0 µM unless noted
Compounds without any hit were thinned out: in the full panel of roughly 79,000, 15% have a hit. The source made the active and inactive calls. Cut-off read from the data, not from the text of the source: active = growth inhibition above about 70%; inactive = the rest.
The reply should name one outcome from yes (1) = active, no (0) = inactive

Query block: Hi team, can someone confirm the assay call for CC(=O)NC1=NC(=O)/C(=C/c2ccccc2Cl)N1C ?
Result block: no (0)

Query block: // outcome(item) with item = ClC1=C(Cl)C(Cl)(Cl)c2c3c(c4c(c21)C(Cl)(Cl)C(Cl)=C4Cl)C(Cl)(Cl)C(Cl)=C3Cl
Result block: no (0)

Query block: Assay outcome for C[C@H]1CC(=O)[C@@]2(O)C#C/C=C\C#C[C@@H]3Nc4c(cc(O)c5c4C(=O)c4ccccc4C5=O)[C@]24O[C@]314 : what was it?
Result block: yes (1)

Query block: Test call, this compound: NC(=O)c1ccc(-c2csc(=S)[nH]2)s1
Result block: no (0)

Query block: Answer briefly: the call reported for NC(=O)C(=CN1CC(=O)NC1=S)C(N)=O in this assay.
Result block: no (0)

---
Query block: For CC(C)c1ccc(C2NC(c3ccccc3)c3c(ccc4ccccc34)O2)cc1 (stereo unspecified) , which call appears in the assay record?
Result block: no (0)

Query block: Query: recorded result category for CC(CCO)CCCO (stereo unspecified) in this test
Result block: no (0)

Query block: Hey, what did the test say about CN1CC(c2ccccc2)C(O)(C2(c3ccccc3)CN(C)CC(c3ccccc3)C2=O)C(c2ccccc2)C1 (stereo unspecified) ?
Result block: no (0)

Query block: Look up the recorded call for Cc1cc(C)c(C(=O)c2cccc(C)c2C(=O)O)c(C)c1 in this test.
Result block: no (0)

Query block: In this assay, the call recorded for Cc1nc2c(cnn2C)c(=O)n1C(C)C was what?
Result block: no (0)

Query block: What classification did Cc1nc2ncnc(N)c2[nH]1 end up with in this test?
Result block: no (0)

Values were extracted from PubChem BioAssay (NCI).
